# MEASUREMENT TARGET: Tyrosine-protein kinase Lck (Homo sapiens) (UniProt P06239)
# Sequence (P06239 2-509 limits assumed): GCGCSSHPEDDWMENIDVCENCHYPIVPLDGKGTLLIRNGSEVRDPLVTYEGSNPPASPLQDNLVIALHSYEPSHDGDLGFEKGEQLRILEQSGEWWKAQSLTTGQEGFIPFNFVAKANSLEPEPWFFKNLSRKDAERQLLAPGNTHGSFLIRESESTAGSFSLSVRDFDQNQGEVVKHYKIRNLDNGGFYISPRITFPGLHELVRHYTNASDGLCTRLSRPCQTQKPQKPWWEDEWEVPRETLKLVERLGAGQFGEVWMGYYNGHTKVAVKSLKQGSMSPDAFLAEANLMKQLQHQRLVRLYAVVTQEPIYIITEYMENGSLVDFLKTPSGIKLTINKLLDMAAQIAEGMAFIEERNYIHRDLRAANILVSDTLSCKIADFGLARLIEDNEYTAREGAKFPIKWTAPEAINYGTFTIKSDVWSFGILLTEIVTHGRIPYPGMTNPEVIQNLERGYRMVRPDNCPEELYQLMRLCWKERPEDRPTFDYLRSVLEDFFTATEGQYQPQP
# TEST CONTEXT: at 10 µM
ASSAY METRIC: residual activity (%)
Could you give me the number in %? Just the number is fine.

Please supply the value of reported residual activity for the item O=C(O)c1ccc2c3c1cccc3c(=O)n1c3ccccc3nc21
79

Please supply the value of reported residual activity for the item COc1ccc(CNc2nc(N(CCO)CCO)nc3c2ncn3C(C)C)cc1
79

Please supply the value of reported residual activity for the item Cc1cncc2cccc(S(=O)(=O)N3CCCN(C(=O)CN)C[C@H]3C)c12
78

Please supply the value of reported residual activity for the item CNc1cc2c(Nc3cccc(Br)c3)ncnc2cn1
79

Please supply the value of reported residual activity for the item Oc1ccc(Nc2nc(-c3ccc(Cl)cc3)cs2)cc1
79

Please supply the value of reported residual activity for the item O=C1NC(=O)/C(=C/c2ccc3c(c2)OC(F)(F)O3)S1
91

Please supply the value of reported residual activity for the item CC(C)n1cnc2/c(=N/c3cccc(Cl)c3)nc(NCCO)[nH]c21
40

Please supply the value of reported residual activity for the item CCN(CC)C(=O)c1ccc(Nc2nc(OCC3CCCCC3)c3nc[nH]c3n2)cc1
7

Please supply the value of reported residual activity for the item CC(=O)O/N=C1\C(=C2\C(=O)Nc3cc(Br)ccc32)Nc2ccccc21
26

Please supply the value of reported residual activity for the item O=C1Nc2cc(Br)ccc2/C1=C1/Nc2ccccc2/C1=N\O
19

* * *

# MEASUREMENT TARGET: Aurora kinase B (Homo sapiens) (UniProt Q96GD4)
# Sequence (Q96GD4 whole entry): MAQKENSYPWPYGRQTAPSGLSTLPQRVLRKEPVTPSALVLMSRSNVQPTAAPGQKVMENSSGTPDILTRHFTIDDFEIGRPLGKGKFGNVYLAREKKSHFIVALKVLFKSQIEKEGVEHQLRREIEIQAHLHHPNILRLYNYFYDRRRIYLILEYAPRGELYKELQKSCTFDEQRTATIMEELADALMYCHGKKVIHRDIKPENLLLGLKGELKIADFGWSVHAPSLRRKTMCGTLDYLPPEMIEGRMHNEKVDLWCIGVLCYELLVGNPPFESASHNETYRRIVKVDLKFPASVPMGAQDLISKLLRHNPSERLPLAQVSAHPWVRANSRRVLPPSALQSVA
# TEST CONTEXT: at 1 µM
Give measured residual activity for each item. Keep answers brief.
Could you give me the number in %? Just the number is fine.

Under Aurora kinase B (Homo sapiens) (UniProt Q96GD4): report residual activity of c1ccc(-c2n[nH]c3c2oc2ccccc23)cc1 .
39

Under Aurora kinase B (Homo sapiens) (UniProt Q96GD4): report residual activity of O=C1NC(=O)/C(=C\c2ccc3nccnc3c2)S1 .
71

Under Aurora kinase B (Homo sapiens) (UniProt Q96GD4): report residual activity of O=C(O)c1ccc2c3c1cccc3c(=O)n1c3ccccc3nc21 .
64

Under Aurora kinase B (Homo sapiens) (UniProt Q96GD4): report residual activity of N#CCCc1ccc2c(c1)-c1[nH]c3ccc([N+](=O)[O-])cc3c1CC(=O)N2 .
8

Under Aurora kinase B (Homo sapiens) (UniProt Q96GD4): report residual activity of COc1cc2ncnc(Nc3ccc(O)c(Br)c3)c2cc1OC .
43

Under Aurora kinase B (Homo sapiens) (UniProt Q96GD4): report residual activity of Cn1nc2c3c(cccc31)C(=O)c1ccccc1-2 .
75

Under Aurora kinase B (Homo sapiens) (UniProt Q96GD4): report residual activity of COc1ccc(CNc2nc(N(CCO)CCO)nc3c2ncn3C(C)C)cc1 .
95

Under Aurora kinase B (Homo sapiens) (UniProt Q96GD4): report residual activity of CO[C@@H]1[C@H](N(C)C(=O)c2ccccc2)C[C@H]2O[C@]1(C)n1c3ccccc3c3c4c(c5c6ccccc6n2c5c31)C(=O)NC4 .
1

Under Aurora kinase B (Homo sapiens) (UniProt Q96GD4): report residual activity of CN(C)CCCn1cc(C2=C(c3c[nH]c4ccccc34)C(=O)NC2=O)c2ccccc21 .
31

Under Aurora kinase B (Homo sapiens) (UniProt Q96GD4): report residual activity of O=c1cc(-c2cccc3c2Sc2ccccc2S3)oc(N2CCOCC2)c1 .
105

Under Aurora kinase B (Homo sapiens) (UniProt Q96GD4): report residual activity of CO[C@H]1C[C@@H]2CC[C@@H](C)[C@@](O)(O2)C(=O)C(=O)N2CCCC[C@H]2C(=O)O[C@H]([C@H](C)C[C@@H]2CC[C@@H](O)[C@H](OC)C2)CC(=O)[C@H](C)/C=C(\C)[C@@H](O)[C@@H](OC)C(=O)[C@H](C)C[C@H](C)/C=C/C=C/C=C/1C .
92

Under Aurora kinase B (Homo sapiens) (UniProt Q96GD4): report residual activity of Nc1nc(Nc2ccc(S(N)(=O)=O)cc2)nn1C(=S)Nc1c(F)cccc1F .
0

Under Aurora kinase B (Homo sapiens) (UniProt Q96GD4): report residual activity of Nc1ccc2ncnc(NCCc3ccc(Oc4ccccc4)cc3)c2c1 .
41

Under Aurora kinase B (Homo sapiens) (UniProt Q96GD4): report residual activity of CC[n+]1c(/C=C/N(C)c2ccccc2)n(-c2ccccc2)c2ccc(-c3nc4ccccc4s3)cc21 .
139

Under Aurora kinase B (Homo sapiens) (UniProt Q96GD4): report residual activity of Nc1n[nH]c2nnc(-c3c(-c4ccccc4)nn4ccccc34)cc12 .
91
